All values here come from paper PMC10135569.

# Tested on: hiPSC-CMs (iCell2 Cardiomyocytes) 2D monolayers
# protocol details: Membrane potential (action potential) recordings with FluoVolt voltage-sensitive dye on the CellOPTIQ platform
# Format: cell-based, human
# applied conditions: Homo sapiens, Cardiomyocyte, 0.5 h, FM monolayer; 0.3 µM; 30 min; delta over DMSO 0.1%; read-out: Trise (%DD)
readout label: activity at 0.3 µM (%)
# value in %; strip the unit string

In plain terms, CC(C)NCC(O)c1ccc(O)c(O)c1 (stereo not shown) has a documented activity at 0.3 µM of 106

activity at 0.3 µM measured on C[C@@H]1CC(=O)NN=C1c1ccc(NN=C(C#N)C#N)cc1 = 80

Input COc1ccc([C@@H]2Sc3ccccc3N(CCN(C)C)C(=O)[C@@H]2OC(C)=O)cc1 . Output activity at 0.3 µM: 116

Documented activity at 0.3 µM of O=C(O)COCCN1CCN(C(c2ccccc2)c2ccc(Cl)cc2)CC1 (stereo not shown) : 127

The recorded activity at 0.3 µM for entry C[N+](C)(C)CCOC(N)=O equals 118

Data point: C=C[C@H]1C[N@@]2CC[C@H]1C[C@@H]2[C@@H](O)c1ccnc2ccc(OC)cc12 ; activity at 0.3 µM = 103

Item: Cc1[nH]c(=O)c(C#N)cc1-c1ccncc1 | activity at 0.3 µM: 80
